- Test Target: GFP-HTTQ74 reporter construct
- Assay Name: cell-based or functional assay
This section presents binders with their documented % Aggregation (relative to Q74 alone), filter trap assay values.
Field format: number, assumed %, no unit text.

Here's what some known entries look like.
{"Binder": "Construct 4, JB1-2XQBP1 (designed binder) MGKDYYQTLGLARGASDEEIKRAYRRQALRYHPDKNKEPGAEEKFKEIAEAYDVLSDPRKREIFDRYGEEGLKGSDIGGGGSGGGGSGGGGSGGGGSAAASNWKWWPGIFDGLESNWKWWPGIFD", "Result": 29.7}
{"Binder": "Construct 14, JB1(1-108)-2XQBP1 (designed binder) MGKDYYQTLGLARGASDEEIKRAYRRQALRYHPDKNKEPGAEEKFKEIAEAYDVLSDPRKREIFDRYGEEGLKGSGPSGGSGGGANGTSFSYTFHGDPHAMFAEFFGGDIGGGGSGGGGSGGGGSGGGGSAAASNWKWWPGIFDGLESNWKWWPGIFD", "Result": 32}
{"Binder": "Construct 8, JB1(P33Q)-2XQBP1 (designed binder) MGKDYYQTLGLARGASDEEIKRAYRRQALRYHQDKNKEPGAEEKFKEIAEAYDVLSDPRKREIFDRYGEEGLKGSDIGGGGSGGGGSGGGGSGGGGSAAASNWKWWPGIFDGLESNWKWWPGIFD", "Result": 93}
{"Binder": "Construct 12, JB1(1-57)-2XQBP1 (designed binder) MGKDYYQTLGLARGASDEEIKRAYRRQALRYHPDKNKEPGAEEKFKEIAEAYDVLSDDIGGGGSGGGGSGGGGSGGGGSAAASNWKWWPGIFDGLESNWKWWPGIFD", "Result": 40.3}
{"Binder": "Construct 9, JB1(20-31)-2XQBP1 (designed binder) MGTGSEFIKRAYRRQALRYDIGGGGSGGGGSGGGGSGGGGSAAASNWKWWPGIFDGLESNWKWWPGIFD", "Result": 91}

Proceed to the following item.
Q: Give % Aggregation (relative to Q74 alone), filter trap assay for the following binder: Construct 10, JB1(19-43)-2XQBP1 (designed binder) MGTGSEFEIKRAYRRQALRYHPDKNKEPGAEEDIGGGGSGGGGSGGGGSGGGGSAAASNWKWWPGIFDGLESNWKWWPGIFD
A: 91
